Molecular target: UniProt:Q96RJ0
Sequence (Q96RJ0 whole entry): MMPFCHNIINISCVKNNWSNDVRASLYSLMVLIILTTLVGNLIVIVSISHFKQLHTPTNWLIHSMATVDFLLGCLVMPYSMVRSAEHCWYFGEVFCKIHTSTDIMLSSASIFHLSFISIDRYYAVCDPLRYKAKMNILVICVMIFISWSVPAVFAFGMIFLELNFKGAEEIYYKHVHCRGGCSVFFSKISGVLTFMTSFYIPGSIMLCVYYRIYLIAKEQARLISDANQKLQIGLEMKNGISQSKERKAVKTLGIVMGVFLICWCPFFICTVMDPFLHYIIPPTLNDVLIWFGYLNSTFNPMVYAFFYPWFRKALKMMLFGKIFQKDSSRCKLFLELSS
Test: Evaluation of agonist activity on human TAAR1 receptor (cAMP assay)
Format: cell-based
Conditions: CHO, 0.5 h, 100 nM; cAMP in human TAAR1-expressing CHO cells; relative to 100 μM tyramine; read-out: TAAR1 agonist activity at each concentration (%)
Where a name gives a salt, the structure may show the parent alone.
Classify on activation at 0.1 µM using bin A (below 2%), bin B (2% to below 10%), bin C (10% or more)

compound | classification
NC[C@H]1c2nc(F)ccc2OC12CC2 (single isomer, unassigned) [Example 103, dihydrobromide] | bin C
CNC[C@H]1c2ncccc2O[C@@H]1C [Example 46, dihydrochloride] | bin C
Cc1ccc2c(n1)C(CN)C(C)(C)O2 (stereo not shown) | bin C
NC[C@@H]1c2ncccc2OC12CC2 (single isomer, unassigned) [Example 96, dihydrochloride] | bin B
CNCC1CCSc2cccnc21 (racemic) [Example 45, dihydrochloride] | bin C
NC[C@@H]1c2ncc(Cl)cc2OC12CC2 (single isomer, unassigned) [Example 98, dihydrochloride] | bin A
CC[C@H]1COc2cccnc2[C@@H]1CN (racemic) | bin A
NC[C@@H]1CCSc2cccnc21 (single isomer, unassigned) [Example 40, dihydrochloride] | bin C
C[C@H]1COc2cccnc2[C@H]1CN (stereo in doubt) [Example 3, dihydrochloride] | bin A
NC[C@H]1c2ncc(Cl)cc2OC12CC2 (single isomer, unassigned) [Example 99, dihydrochloride] | bin B
CC1CCC(CN)c2ncccc21 (stereo not shown) | bin A
C[C@H]1Oc2cccnc2[C@@H]1C(C)(C)N | bin C
Cc1ccc2c(n1)[C@@H](CN)C1(CC1)O2 (single isomer, unassigned) [Example 100, dihydrochloride] | bin A
C[C@@H]1COc2cccnc2[C@@H]1CN (stereo in doubt) [Example 2, dihydrochloride] | bin B
CNCC1CC(C)c2cccnc21 (stereo not shown) | bin A
CC[C@@H]1C[C@H](CN)c2ncccc2O1 (racemic) | bin B
NCC1c2ncccc2OC12CC2 (stereo not shown) | bin C
NCC1CCSc2cccnc21 (stereo not shown) | bin C
CC[C@H]1Oc2cccnc2[C@@H]1CN (stereo in doubt) [Example 43, dihydrochloride] | bin A
